Biological target: T1, Bio-P19 member A2E-1 (chain 2: C-terminal BirA substrate peptide (BSP), enzymatically biotinylated; its letters are not printed in the patent and it is left out)
T1 construct: also called biotinylated control peptide A2E-1/HLA-A*02:01 monomer
T1 sequence (b2m, as listed by the source): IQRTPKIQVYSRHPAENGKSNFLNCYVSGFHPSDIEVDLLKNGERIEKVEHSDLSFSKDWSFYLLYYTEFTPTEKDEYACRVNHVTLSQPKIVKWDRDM
Experiment: phage ELISA, streptavidin plate, anti-M13-HRP

| BINDER | binding result |
| --- | --- |
| PSA146/HLA-A*02:01-specific scFv phage clone #5 (scFv, V domains shown) VH: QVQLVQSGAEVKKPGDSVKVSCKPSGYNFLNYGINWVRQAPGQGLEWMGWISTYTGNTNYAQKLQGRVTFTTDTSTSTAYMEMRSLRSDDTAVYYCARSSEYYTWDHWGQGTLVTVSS VL: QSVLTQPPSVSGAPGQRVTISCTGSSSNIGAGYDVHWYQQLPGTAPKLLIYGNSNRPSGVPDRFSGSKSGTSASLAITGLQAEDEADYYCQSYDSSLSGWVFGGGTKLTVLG | no binding |
| PSA146/HLA-A*02:01-specific scFv phage clone #15 (scFv, V domains shown) VH: QVQLVQSGAEVKKPGSSVKVSCKASGGTFSSYAISWVRQAPGQGLEWMGRIIPILGIANYAQKFQGRVTITADKSTSTAYMELSSLRSEDTAVYYCARVSQPVYGSSTYDIWGQGTLVTVSS VL: QAVLTQPPSASGTPGQRVTISCSGRSSNLGSNSVNWYQQVPGTAPKLLIFDNHQRPSGVPDRFSGSKSGTSASLAISGLRSEDETDYYCAAWDDSLNSVVFGGGTKLTVLG | no binding |

The values you see were collected from patent US20200087400A1.
